- Tested on: HCV replicon 1AY93H
- METHOD NOTES: microbe, parasite or virus in culture
- Format: cell-based, Hepatitis C virus (HCV)
- STUDY CONDITIONS: read-out: 1A Y93H IC50; replicon 1AY93H; Replicon Assay A
EXPERIMENTAL ENDPOINT: pIC50
Worth noting: pIC50 values are minus log10 of concentrations stated in mol/L.

Give recorded pIC50 with HCV replicon 1AY93H for the following compound: COC(=O)NC(C(=O)N1CCC[C@H]1c1ncc(-c2ccc3c(c2)cc2n3C(c3ccc(CC4CC4)s3)Oc3cc(-c4cnc([C@@H]5CCCN5C(=O)[C@@H](NC(=O)OC)C(C)C)[nH]4)cc(F)c3-2)[nH]1)C1CCO[C@H](C)C1 (some centres unmarked) [Compound 368]
11.33

Give recorded pIC50 with HCV replicon 1AY93H for the following compound: COC(=O)N[C@H](C(=O)N1CCC[C@H]1c1ncc(-c2cc(F)c3c(c2)OC(c2ccc(C4CC4)s2)n2c-3c(F)c3cc(-c4cnc([C@@H]5CCCC5C(=O)[C@@H](NC(=O)OC)C5CCOCC5)[nH]4)ccc32)[nH]1)C(C)C (single isomer, unassigned) [Compound 363]
11.32
